Reference source for all entries: patent US20260234232A1

biological target: T1, human VEGFA165 (human, UniProt P15692-4 27-191); experiment: ELISA, coated human VEGFA165, anti-His detection
T1 construct: Bought protein from two suppliers, treated as one molecule; the supplier is named under assay; also called antigen VEGFA
T1 sequence (P15692 other isoform, or with tags, fused parts or gaps limits assumed): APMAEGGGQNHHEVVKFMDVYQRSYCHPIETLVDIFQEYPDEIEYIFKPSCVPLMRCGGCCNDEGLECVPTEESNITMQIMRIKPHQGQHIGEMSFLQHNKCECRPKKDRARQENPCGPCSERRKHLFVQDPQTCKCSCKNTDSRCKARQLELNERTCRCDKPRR
MEASURED_PROPERTY: EC50 (nM)

BINDER: 2V15-30GS (VHH, Tandem bivalent nanobody) QLQLVESGGGSVQPGGSLRLSCEVSGRTFASYTMGWFRQAPGKEREFVVAISKGGYKYDSVSLEARFTISKDNTKNTVYLQMNSLKPEDTAVYYCAGTRAYGSSRLRLAETYEYWGQGTQVTVSSGGGGSGGGSGGGGSGGGSGGGSGGGSGGGSQLQLVESGGGSVQPGGSLRLSCEVSGRTFASYTMGWFRQAPGKEREFVVAISKGGYKYDSVSLEARFTISKDNTKNTVYLQMNSLKPEDTAVYYCAGTRAYGSSRLRLAETYEYWGQGTQVTVSS
OBSERVED_VALUE: 0.27
--
BINDER: 2V1-(AP)10 (VHH, Tandem bivalent nanobody) QLQLVESGGGSVQPGGSLRLSCEVSGRTFSSYTMGWFRQAPGKEREFVVAISKGGYKYDSVSLEARFTISKDNTKNTVYLQMNSLKPEDTAVYYCAATRAYGSSRLRLADTYEYWGQGTQVTVSSPDSAPAPAPAPAPAPAPAPAPAPDGSSQLQLVESGGGSVQPGGSLRLSCEVSGRTFSSYTMGWFRQAPGKEREFVVAISKGGYKYDSVSLEARFTISKDNTKNTVYLQMNSLKPEDTAVYYCAATRAYGSSRLRLADTYEYWGQGTQVTVSS
OBSERVED_VALUE: 0.18
--
BINDER: 2V1-30GS (VHH, Tandem bivalent nanobody) QLQLVESGGGSVQPGGSLRLSCEVSGRTFSSYTMGWFRQAPGKEREFVVAISKGGYKYDSVSLEARFTISKDNTKNTVYLQMNSLKPEDTAVYYCAATRAYGSSRLRLADTYEYWGQGTQVTVSSGGGGSGGGSGGGGSGGGSGGGSGGGSGGGSQLQLVESGGGSVQPGGSLRLSCEVSGRTFSSYTMGWFRQAPGKEREFVVAISKGGYKYDSVSLEARFTISKDNTKNTVYLQMNSLKPEDTAVYYCAATRAYGSSRLRLADTYEYWGQGTQVTVSS
OBSERVED_VALUE: 0.22
--
BINDER: 2V15-EAAAK-Turn (VHH, Tandem bivalent nanobody) QLQLVESGGGSVQPGGSLRLSCEVSGRTFASYTMGWFRQAPGKEREFVVAISKGGYKYDSVSLEARFTISKDNTKNTVYLQMNSLKPEDTAVYYCAGTRAYGSSRLRLAETYEYWGQGTQVTVSSPDSEAAAKEAAAKEAAAKEAAAKEAAAKPDGSSQLQLVESGGGSVQPGGSLRLSCEVSGRTFASYTMGWFRQAPGKEREFVVAISKGGYKYDSVSLEARFTISKDNTKNTVYLQMNSLKPEDTAVYYCAGTRAYGSSRLRLAETYEYWGQGTQVTVSS
OBSERVED_VALUE: 0.33
--
BINDER: 2V1-6A (VHH, Tandem bivalent nanobody) QLQLVESGGGSVQPGGSLRLSCEVSGRTFSSYTMGWFRQAPGKEREFVVAISKGGYKYDSVSLEARFTISKDNTKNTVYLQMNSLKPEDTAVYYCAATRAYGSSRLRLADTYEYWGQGTQVTVSSAAAAAAQLQLVESGGGSVQPGGSLRLSCEVSGRTFSSYTMGWFRQAPGKEREFVVAISKGGYKYDSVSLEARFTISKDNTKNTVYLQMNSLKPEDTAVYYCAATRAYGSSRLRLADTYEYWGQGTQVTVSS
OBSERVED_VALUE: 0.33
--
BINDER: 2V15-9GS (VHH, Tandem bivalent nanobody) QLQLVESGGGSVQPGGSLRLSCEVSGRTFASYTMGWFRQAPGKEREFVVAISKGGYKYDSVSLEARFTISKDNTKNTVYLQMNSLKPEDTAVYYCAGTRAYGSSRLRLAETYEYWGQGTQVTVSSGGGGSGGGSQLQLVESGGGSVQPGGSLRLSCEVSGRTFASYTMGWFRQAPGKEREFVVAISKGGYKYDSVSLEARFTISKDNTKNTVYLQMNSLKPEDTAVYYCAGTRAYGSSRLRLAETYEYWGQGTQVTVSS
OBSERVED_VALUE: 0.22
